- assayed system: P450cam mutant Y96L, C334A (Pseudomonas putida, UniProt P00183, C335A/Y97L)
- Construct: reconstituted with putidaredoxin and putidaredoxin reductase
- Sequence (P00259 whole entry): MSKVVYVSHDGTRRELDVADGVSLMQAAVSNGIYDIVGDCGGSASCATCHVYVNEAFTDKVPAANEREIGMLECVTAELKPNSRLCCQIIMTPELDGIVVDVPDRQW
- Sequence (P16640 whole entry, further chain): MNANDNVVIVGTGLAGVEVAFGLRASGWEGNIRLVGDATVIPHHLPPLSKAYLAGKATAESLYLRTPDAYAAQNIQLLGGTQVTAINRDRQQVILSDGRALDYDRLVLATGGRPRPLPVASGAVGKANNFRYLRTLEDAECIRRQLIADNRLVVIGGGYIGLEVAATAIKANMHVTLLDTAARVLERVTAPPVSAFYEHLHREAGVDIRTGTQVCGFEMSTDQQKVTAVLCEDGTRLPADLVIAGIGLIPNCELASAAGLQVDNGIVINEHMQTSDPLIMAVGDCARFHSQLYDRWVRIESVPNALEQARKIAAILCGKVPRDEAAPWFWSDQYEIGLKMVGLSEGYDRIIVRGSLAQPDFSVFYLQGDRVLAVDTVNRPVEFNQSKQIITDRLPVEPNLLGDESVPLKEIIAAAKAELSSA
- Sequence (P00183 2-415 Y97L/C335A): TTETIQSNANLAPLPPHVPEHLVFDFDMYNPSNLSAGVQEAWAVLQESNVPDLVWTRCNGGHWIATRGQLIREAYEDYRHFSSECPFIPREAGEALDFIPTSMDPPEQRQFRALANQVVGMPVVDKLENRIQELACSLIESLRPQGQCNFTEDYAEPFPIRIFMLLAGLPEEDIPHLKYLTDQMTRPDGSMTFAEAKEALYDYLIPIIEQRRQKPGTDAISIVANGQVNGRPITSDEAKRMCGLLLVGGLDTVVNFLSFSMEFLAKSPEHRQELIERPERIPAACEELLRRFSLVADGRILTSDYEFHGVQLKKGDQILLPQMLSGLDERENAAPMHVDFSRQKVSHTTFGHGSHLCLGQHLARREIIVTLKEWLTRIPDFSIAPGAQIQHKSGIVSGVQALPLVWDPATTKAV
- experimental protocol: Product distribution following oxidation of substrates, Y96L (also C334A)
- Assay type: biochemical, P. putida
outcome measure: Total products

molecule	outcome measure	observed
c1ccc2c(c1)ccc1ccccc12 [Phenanthrene]	Total products	2.8 area/10^6
c1ccc2ccccc2c1 [Naphthalene]	Total products	0.7 area/10^5
c1cc2ccc3cccc4ccc(c1)c2c34 [Pyrene]	Total products	1.5 area/10^6

Okay, now this molecule:
Give the measured Total products of c1ccc(C2CCCCC2)cc1 [Cyclohexylbenzene] . 10.4 area/10^5
